B1: ELF3 (parent)
chain: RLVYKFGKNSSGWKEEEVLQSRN

Variants of: B1
measurement protocol: protein stability index of a GFP-peptide fusion (GPS, HEK-293T) (PSI 1-6); higher = more stable;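 further: lentivirally expressed fusions sorted by FACS into six bins by GFP to DsRed ratio, PSI derived from sequencing read proportions per bin multiplied by bin number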
cond: c terminus: native
Cut-off 2 on protein stability index, inclusive. At or above means 1 (yes); below means 0 (no).

N23D	1 (yes)
E15D	0 (no)
S10E	1 (yes)
V18A	1 (yes)

Ask: Answer whether protein stability index of R1V is greater than or equal to 2.
Reply: 0 (no)

Ask: Does protein stability index meet or surpass 2 for F6Q ?
Reply: 1 (yes)
